- study.system: T1, mfNPR1-mFc:hANP complex (monkey; human, UniProt P01160 124-151)
- T1 construct: also called monkey NPR1 complexed to ANP
- measurement.notes: SPR, mAb captured, 37C
assay.readout: kon (M⁻¹ s⁻¹)
Numeric answer only, unit M⁻¹ s⁻¹ assumed.

Reported kon of mAb22809 (antibody, human IgG4, V domains shown) VH: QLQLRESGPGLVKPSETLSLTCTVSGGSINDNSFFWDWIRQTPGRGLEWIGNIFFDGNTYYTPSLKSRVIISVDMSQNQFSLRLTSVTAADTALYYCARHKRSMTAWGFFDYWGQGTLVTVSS VL: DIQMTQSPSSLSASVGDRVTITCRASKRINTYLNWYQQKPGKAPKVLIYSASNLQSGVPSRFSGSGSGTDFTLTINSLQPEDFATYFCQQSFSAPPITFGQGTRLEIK : 55500

Reported kon of mAb22035 (antibody, human IgG4, V domains shown) VH: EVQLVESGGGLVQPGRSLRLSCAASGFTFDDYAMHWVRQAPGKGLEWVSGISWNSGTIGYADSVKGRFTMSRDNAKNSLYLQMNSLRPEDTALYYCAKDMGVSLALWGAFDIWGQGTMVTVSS VL: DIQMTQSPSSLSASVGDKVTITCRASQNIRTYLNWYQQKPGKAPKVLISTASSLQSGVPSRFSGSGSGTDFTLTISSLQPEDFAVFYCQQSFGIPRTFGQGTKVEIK : 255000
